target-desc: T1, mCLDN-3 protein (mouse, UniProt Q9Z0G9 1-219)
T1 construct: Expressed on cells by retrovirus; also called mouse Claudin-3 protein
T1 sequence: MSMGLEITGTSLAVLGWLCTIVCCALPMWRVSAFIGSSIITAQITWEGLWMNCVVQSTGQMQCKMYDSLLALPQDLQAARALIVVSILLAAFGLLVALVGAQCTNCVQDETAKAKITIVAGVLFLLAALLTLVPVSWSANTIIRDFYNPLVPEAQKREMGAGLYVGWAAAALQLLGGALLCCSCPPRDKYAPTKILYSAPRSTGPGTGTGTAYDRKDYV
method-summary: FACS, hybridoma supernatant on CLDN-expressing cells

binder: mouse anti-CLDN-5 antibody M48 (antibody, mouse IgG3, V domains shown, Hybridoma monoclonal; also called antibody E) VH: QAYLQQSGAELVRPGASVKMSCKASGYTFTSYNMHWVKKTRRQGLEWIGAISPGNGNTSYNQKFKGKATLTVDKSSSTAYMQLSSLTSEDSAVYFCARDDGYYGALDYWGQGTSVTVSS VL: DIVLTQSPATLSVTPGESVSLSCRASQGISTSIHWYQQKSNESPRLLIRYASQSISRIPSRFSGSGSGTDFTLTINGVESEDLSVYYCQQSYNLPLTFGSGTKLEI
binding result: no binding

binder: mouse anti-CLDN-5 antibody M11 (antibody, mouse IgG2b, V domains shown, Hybridoma monoclonal; also called antibody B) VH: QVQLKQSGPGLVQPSQSLSITCTVSGFSLIRYGVHWVRQSPGKGLEWLGVKWSGGSTDYNGAFKSRLSISKDNSKSQVFFKMNSLQADDTAIYYCARGLDGYYVPDVWGTGTSVTVS VL: DIVMTQSHKFMSTSVGDRVSITCKASQDVSTNVAWYQQKPGQSPTLLIYWASTRHTGVPDRFTGSGSGTDYTLTISSVQAEDLALYYCQQHYSTPLTFGAGTKLELRR
binding result: no binding

binder: rat anti-CLDN-5 antibody R28 (antibody, rat IgG2a, V domains shown, Hybridoma monoclonal; also called antibody M) VH: EVQLVESGGGLVQPGRSLKLSCAASGFTFSDYFMAWVRQAPKKGLEWVASINYEGSRTYYGDSVKDRFTISRDNTKTTLYLQMTSLRSEDTATYYCARHPRRYFDFWGQGVMVTVSS VL: DIVMTQSPSSLAVSAGETVTINCKSSRSLFSSGYQENYLAWYQQKPGQSPKMLIYLASTRESGVPDRFIGSGSGTDFTLTINTLQAEDLAIYYCQQHYDIPYTFGAGTKLEL
binding result: no binding
